test-target: α2A receptor (Homo sapiens, UniProt P08913)
Construct: host or cells: LM(tk-) cells, line L-α2A
Sequence (P08913 whole entry): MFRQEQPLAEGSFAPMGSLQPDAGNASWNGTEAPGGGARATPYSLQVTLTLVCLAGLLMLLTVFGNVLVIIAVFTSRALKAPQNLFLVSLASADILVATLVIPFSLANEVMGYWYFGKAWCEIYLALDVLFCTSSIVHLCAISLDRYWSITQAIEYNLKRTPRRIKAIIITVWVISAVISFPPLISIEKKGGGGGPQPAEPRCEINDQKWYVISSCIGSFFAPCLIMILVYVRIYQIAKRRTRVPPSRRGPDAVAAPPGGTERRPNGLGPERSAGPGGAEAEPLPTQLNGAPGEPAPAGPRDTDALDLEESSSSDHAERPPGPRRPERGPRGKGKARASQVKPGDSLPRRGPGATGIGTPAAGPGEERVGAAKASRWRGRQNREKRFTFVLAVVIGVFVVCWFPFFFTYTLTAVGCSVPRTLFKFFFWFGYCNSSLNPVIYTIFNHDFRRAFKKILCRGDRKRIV
test-method-notes: Competition binding, [3H]rauwolscine, human α2A receptor
recorded-conditions: [3H]rauwolscine, LM(tk-) cell line L-α2A; SEM and n in lines below; read-out: pKi alpha-2 2a (converted)
Method: The protocols for these experiments are given below. α2 Human Adrenergic Receptors: To determine the potency of […], antagonists at the α2 receptors, LM(tk−) cell lines stably transfected with the genes encoding the α2A, α2B, and α2C receptors were used. The cell line expressing the α2A receptor is designated L-α2A, and was deposited on Nov. […] Equilibrium competition binding assay were performed using [3H]rauwolscine (0.5 nM), and nonspecific binding was determined by incubation with 10 μM phentolamine. […]
Counter-ions that a name gives are not always drawn.
// NB: equality with 1000 nM counts as Not met; only Ki strictly below is Met

[[record]]
compound = "COC(=O)C1=C(C)NC(C)=C(C(=O)NCCCN2CCC(c3ccccc3)(c3ccccc3)CC2)C1Cc1ccccc1 (stereo not drawn) [Example 8]"
test_target = "α2A receptor (Homo sapiens, UniProt P08913)"
assigned_label = "Met"

[[record]]
compound = "COC(=O)C1=C(C)NC(C)=C(C(=O)NCCCN2CCC(c3ccccc3)(c3ccccc3)CC2)C1c1cc[n+]([O-])cc1 (stereo not drawn) [Example 9]"
test_target = "α2A receptor (Homo sapiens, UniProt P08913)"
assigned_label = "Not met"

[[record]]
compound = "COC(=O)C1=C(C)NC(C)=C(C(=O)NCCCN2CCC(c3ccccc3)(c3ccccc3)CC2)C1c1ccoc1 (stereo not drawn) [Example 23]"
test_target = "α2A receptor (Homo sapiens, UniProt P08913)"
assigned_label = "Met"

[[record]]
compound = "COC(=O)C1=C(C)NC(C)=C(C(=O)NCCCN2CCC(c3ccccc3)(c3ccccc3)CC2)C1c1ccc([N+](=O)[O-])c(C)c1 (stereo not drawn) [Example 28]"
test_target = "α2A receptor (Homo sapiens, UniProt P08913)"
assigned_label = "Not met"

[[record]]
compound = "COC(=O)C1=C(C)NC(C)=C(C(=O)NCCCN2CCC(c3ccccc3)(c3ccccc3)CC2)C1c1ccc([N+](=O)[O-])c(OC)c1 (stereo not drawn) [Example 29]"
test_target = "α2A receptor (Homo sapiens, UniProt P08913)"
assigned_label = "Met"

[[record]]
compound = "COC(=O)C1=C(C)NC(c2ccoc2)=C(C(=O)NCCCN2CCC(c3ccccc3)CC2)C1c1ccc([N+](=O)[O-])cc1 (stereo not drawn) [Example 65, hydrochloride hydrate]"
test_target = "α2A receptor (Homo sapiens, UniProt P08913)"
assigned_label = "Met"


All figures here come from patent US6608086B2.
